We begin with a simple list: items and their reported IC50.
Biological target: DYRK1A (Homo sapiens, UniProt Q13627)
Construct: full-length human kinases from Carna Biosciences; purchased Carna Biosciences 04-130
Test: Kinase TR-FRET assay, DYRK1A
Assay type: biochemical
Provide the measurement as a number trailed by its unit.

Here is how some compounds turned out for IC50.
State, for DYRK1A (Homo sapiens, UniProt Q13627), measured IC50 of the compound listed here: Cc1nc(NCc2cccc(F)c2F)c2c(-c3ccnc(N)c3)c[nH]c2n1 [Example 74]
0.0012 µM

State, for DYRK1A (Homo sapiens, UniProt Q13627), measured IC50 of the compound listed here: Cc1nc(NC(C)c2c(F)cccc2F)c2c(-c3ccnc(N)c3)c[nH]c2n1 (stereo not drawn) [Example 82]
0.001 µM

State, for DYRK1A (Homo sapiens, UniProt Q13627), measured IC50 of the compound listed here: COc1cccc(F)c1CNc1nc(C)nc2[nH]cc(-c3ccnc(N)c3)c12 [Example 69]
0.0016 µM

State, for DYRK1A (Homo sapiens, UniProt Q13627), measured IC50 of the compound listed here: CC(C)c1nc(NCc2c(F)cccc2F)c2c(-c3ccnc(N)c3)c[nH]c2n1 [Example 150]
0.0034 µM

State, for DYRK1A (Homo sapiens, UniProt Q13627), measured IC50 of the compound listed here: COc1cccc(C(F)(F)F)c1CNc1nc(C)nc2[nH]cc(-c3ccnc(N)c3)c12 [Example 80]
0.0059 µM

New cases:
State, for DYRK1A (Homo sapiens, UniProt Q13627), measured IC50 of the compound listed here: Cc1nc(NCc2ncccc2C(F)(F)F)c2c(-c3ccnc(N)c3)c[nH]c2n1 [Example 78]
0.0013 µM

State, for DYRK1A (Homo sapiens, UniProt Q13627), measured IC50 of the compound listed here: Cc1nc(NCC2CCCCC2)c2c(-c3ccnc(N)c3)c[nH]c2n1 [Example 48]
0.043 µM

State, for DYRK1A (Homo sapiens, UniProt Q13627), measured IC50 of the compound listed here: Cc1nc(NCc2ncccc2C)c2c(-c3ccnc(N)c3)c[nH]c2n1 [Example 60]
0.003 µM

State, for DYRK1A (Homo sapiens, UniProt Q13627), measured IC50 of the compound listed here: Cc1nc(NCc2cc(C)on2)c2c(-c3ccnc(N)c3)c[nH]c2n1 [Example 59]
0.0102 µM

###

Target: His-TEV-DYRK1A Kinase domain (aa127-485) (Homo sapiens, UniProt Q13627)
Construct: His-TEV-DYRK1A Kinase domain (aa127-485); His (N); TEV cleavage site (N)
Experiment: Kinase ADP assay (ADP Hunter Plus)
Format: biochemical
We begin with a simple list: items and their reported IC50.
Just the number in µM, nothing appended.

Here is how some molecules turned out for IC50.
Consider the molecule Cc1nc(C2CCc3ccccc3C2)c2c(-c3ccnc(N)c3)c[nH]c2n1 (centres unmarked) and give its recorded IC50.
0.07

Consider the molecule Cc1nc(-c2cc3ccccc3n2C)c2c(-c3ccnc(N)c3)c[nH]c2n1 and give its recorded IC50.
0.017

Consider the molecule Cc1nc(N2CCn3ccnc3C2)c2c(-c3cc(N)nc(N)c3)c[nH]c2n1 and give its recorded IC50.
0.417

New cases:
Consider the molecule COc1ccccc1C#Cc1nc(C)nc2[nH]cc(-c3ccnc(N)c3)c12 and give its recorded IC50.
0.009

Consider the molecule Nc1cc(-c2c[nH]c3nc(C#CC4CC4)cc(NCc4c(F)cccc4F)c23)ccn1 and give its recorded IC50.
0.021

Consider the molecule Cc1nc(N2CCN(C)CC2)c2c(-c3ccnc(N)c3)c[nH]c2n1 and give its recorded IC50.
0.165

Consider the molecule Cc1nc(N2CCCC2)c2c(-c3ccnc(N)c3)c[nH]c2n1 and give its recorded IC50.
0.827

Consider the molecule CC(C)c1nc(NCc2c(F)cccc2F)c2c(-c3ccnc(N)c3)c[nH]c2n1 and give its recorded IC50.
0.74
